Just for reference, the supplement of paper PMC10307832 is where these values come from.

Let's look at some compounds and their measured relative viability.
# Tested on: NCI-H1792
# METHOD DESCRIPTION: relative viability (nuclei count vs DMSO), 5 days (fraction); higher = more cells survive
# STATED CONDITIONS: first compound 0.01 µM
QUANTITY KIND: relative viability

[[record]]
compound = "NC(=O)Nc1cc(-c2cccc(F)c2)sc1C(=O)N[C@H]1CCCNC1 [AZD7762] + CC(C)C[C@H](NC(=O)[C@H](Cc1ccccc1)NC(=O)c1cnccn1)B(O)O [Bortezomib] (partner 0.002 µM)"
endpoint_value = 0.982

[[record]]
compound = "NC(=O)Nc1cc(-c2cccc(F)c2)sc1C(=O)N[C@H]1CCCNC1 [AZD7762] + CS(=O)(=O)CCNCc1ccc(-c2ccc3ncnc(Nc4ccc(OCc5cccc(F)c5)c(Cl)c4)c3c2)o1 [Lapatinib] (partner 2 µM)"
endpoint_value = 0.965

[[record]]
compound = "NC(=O)Nc1cc(-c2cccc(F)c2)sc1C(=O)N[C@H]1CCCNC1 [AZD7762] + Nc1nc2[nH]cc(CCc3ccc(C(=O)N[C@@H](CCC(=O)O)C(=O)O)cc3)c2c(=O)[nH]1 [Pemetrexed] (partner 0.2 µM)"
endpoint_value = 0.957

[[record]]
compound = "NC(=O)Nc1cc(-c2cccc(F)c2)sc1C(=O)N[C@H]1CCCNC1 [AZD7762] + CCNC(=O)c1noc(-c2cc(C(C)C)c(O)cc2O)c1-c1ccc(CN2CCOCC2)cc1 [Luminespib] (partner 0.01 µM)"
endpoint_value = 0.586

[[record]]
compound = "NC(=O)Nc1cc(-c2cccc(F)c2)sc1C(=O)N[C@H]1CCCNC1 [AZD7762] + C[C@]1(O)C[C@@H](c2nc(-c3ccc4ccc(-c5ccccc5)nc4c3)c3c(N)nccn32)C1 [Linsitinib] (partner 1 µM)"
endpoint_value = 0.604

[[record]]
compound = "NC(=O)Nc1cc(-c2cccc(F)c2)sc1C(=O)N[C@H]1CCCNC1 [AZD7762] + O=C(c1cc(Cc2n[nH]c(=O)c3ccccc23)ccc1F)N1CCN(C(=O)C2CC2)CC1 [Olaparib] (partner 8 µM)"
endpoint_value = 0.336

[[record]]
compound = "NC(=O)Nc1cc(-c2cccc(F)c2)sc1C(=O)N[C@H]1CCCNC1 [AZD7762] + COc1cccc2cc(-c3nc([C@H]4CC[C@H](C(=O)O)CC4)n4ncnc(N)c34)[nH]c12 [OSI-027] (partner 0.5 µM)"
endpoint_value = 0.832

[[record]]
compound = "NC(=O)Nc1cc(-c2cccc(F)c2)sc1C(=O)N[C@H]1CCCNC1 [AZD7762] + C[C@@H](Oc1cc(-c2cnn(C3CCNCC3)c2)cnc1N)c1c(Cl)ccc(F)c1Cl [Crizotinib] (partner 1 µM)"
endpoint_value = 1.06


###

# Test system: NCI-H650
# METHOD DESCRIPTION: relative viability (nuclei count vs DMSO), 5 days (fraction); higher = more cells survive
# STATED CONDITIONS: first compound 1 µM
Let's look at some compounds and their measured relative viability.
QUANTITY KIND: relative viability

[[record]]
compound = "NC(=O)Nc1cc(-c2cccc(F)c2)sc1C(=O)N[C@H]1CCCNC1 [AZD7762] + Cc1nc(Nc2ncc(C(=O)Nc3c(C)cccc3Cl)s2)cc(N2CCN(CCO)CC2)n1 [Dasatinib] (partner 0.075 µM)"
target_entity = "NCI-H650"
endpoint_value = 0.412

[[record]]
compound = "NC(=O)Nc1cc(-c2cccc(F)c2)sc1C(=O)N[C@H]1CCCNC1 [AZD7762] + COc1cc2c(Oc3ccc(NC(=O)C4(C(=O)Nc5ccc(F)cc5)CC4)cc3F)ccnc2cc1OCCCN1CCOCC1 [Foretinib] (partner 0.25 µM)"
target_entity = "NCI-H650"
endpoint_value = 1.05

